testDetails: cell viability in Huh7 cells, primary screen, cytotoxicity control for HCV replication inhibitor project, CellTiter-Glo luminescence, basal, 48 h (AID 1143);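 note: Huh7 hepatoma cells carrying a hepatitis C replication reporter with no stimulus; test concentration not given here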
recordedConditions: Huh7 HCV replicon, higher = more signal, called active from +8 up or from −8 down
measuredProperty: z-score

[[record]]
compound = "COC(=O)[C@H](C)NC(=O)CCC1CC(OC(=O)NCc2ccc3c(c2)OCO3)CC2(CCCC(COC(=O)NCCOc3ccccc3)O2)O1 (some centres not stated)"
reportedvalue = -1.55

[[record]]
compound = "CCN1C(=O)[C@H]2[C@H]3[C@H](O)C=CC(=O)[C@@H]3CC[C@H]2C1=O"
reportedvalue = 0.148

[[record]]
compound = "CCCNC(=O)[C@@H]1c2ccccc2C(=O)N(c2ccc(C)cn2)[C@H]1c1ccc(CO)cc1"
reportedvalue = 0.62

[[record]]
compound = "CO[C@H]1COC(=O)[C@H](C)COC(=O)CC=C[C@@H](C)[C@H](OC)COC(=O)CC=C[C@@H]1C"
reportedvalue = -0.0182

[[record]]
compound = "CC(C)C[C@@H]1NC(=O)[C@H]2C[C@@H](C(=O)NCCCCCCN(C)C)[C@@H](c3cccc(OCCO)c3)N2C1=O"
reportedvalue = 0.069

[[record]]
compound = "C=CC[C@@H]1C=C[C@H](ON=Cc2ccc(C(=O)N3[C@H](c4ccc(C)cc4)[C@@H](C)CC[C@H]3C(=O)OC)cc2)[C@@H](CO)O1"
reportedvalue = -1.33

[[record]]
compound = "CCOC(=O)[C@H](Cc1ccccc1)NC(=O)CCC1CC(OC(=O)NCc2ccc3c(c2)OCO3)CC2(CCCC(COC(=O)NCC3CCCCC3)O2)O1 (some centres not stated)"
reportedvalue = -0.734


====

testDetails: yeast growth modulation, basal conditions, primary screen, YJM789 clinical isolate, OD600, 24 h (AID 1089);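 note: growth of clinical yeast isolate S. cerevisiae YJM 789 seeded 1000 cells per well; test concentration not given here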
recordedConditions: S. cerevisiae YJM789 growth, higher = more signal, called active from +8 up or from −8 down
measuredProperty: z-score

[[record]]
compound = "CCCCCN1CC=CC23O[C@@H]4C=CCOC(=O)[C@@H]4[C@H]2C(=O)N(C(CO)C(C)C)[C@@H]3C1=O (some centres not stated)"
reportedvalue = 0.403

[[record]]
compound = "CC(C)(C)OC(=O)CC[C@]1(C(N)=O)COC(c2ccc(OCCCO)cc2)=N1"
reportedvalue = 0.0433

[[record]]
compound = "CN1C(=O)[C@@]2(CCC(=O)OC(C)(C)C)N=C(c3ccc(OCCCO)cc3)O[C@H]2c2ccccc21"
reportedvalue = -1.08

[[record]]
compound = "CCOC(=O)[C@H](CC(C)C)NC(=O)CCC1CC(OC(=O)NCc2cccc3ccccc23)CC2(CCCC(COC(=O)NCCN3CCOCC3)O2)O1 (some centres not stated)"
reportedvalue = -1.26

[[record]]
compound = "COC(=O)[C@@]1(Cc2ccc(F)cc2)[C@H]2c3cc(C(=O)N(C)C)n(Cc4ccc(OC)c(OC)c4)c3C[C@H]2CN1C(=O)c1ccccc1"
reportedvalue = 0.0573

[[record]]
compound = "COCCCNC(=O)[C@@]1(Sc2ccc(C)cc2)CC(=O)N(Cc2ccccc2)[C@@H]1c1ccc(CO)cc1I"
reportedvalue = -1.69

[[record]]
compound = "CCOC(=O)[C@H](Cc1ccccc1)NC(=O)CCC1CC(OC(=O)NCCc2ccc(F)cc2)CC2(CCCC(COC(=O)NCC(c3ccccc3)c3ccccc3)O2)O1 (some centres not stated)"
reportedvalue = 0.378


====

Catalogue of molecules with associated composite z-score
testDetails: small-molecule binders of probe aInhba, primary screen, biochemical, small-molecule microarray, 635/667 nm fluorescence (AID 1148);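 note: score merges 667nm spot fluorescence with signal-to-noise for antibody binding to printed compounds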
recordedConditions: higher = more signal
measuredProperty: composite z-score

[[record]]
molecule = "CO[C@@H]1COC(=O)CC=C[C@@H](C)[C@@H]2C=C[C@@H](O)[C@@H](COC(=O)CC=C[C@H]1C)O2"
reportedvalue = -0.21

[[record]]
molecule = "O=C1CCCC2OC12C(O)CCc1ccccc1 (stereo not given)"
reportedvalue = -0.214

[[record]]
molecule = "CCN1C(=O)[C@H]2[C@H]3[C@H](O)[C@H](O)CC(=NOCc4ccccc4)[C@H]3CC[C@H]2C1=O"
reportedvalue = -0.189

[[record]]
molecule = "O=C1C[C@]2(c3ccc([N+](=O)[O-])cc3)C(=O)N(CCN3CCOCC3)c3cc(CO)ccc3[C@H]2N1CC12CC3CC(CC(C3)C1)C2"
reportedvalue = -0.122

[[record]]
molecule = "COC(=O)[C@]1(CO)N=C(c2ccc(OCCCO)cc2)O[C@@H]1c1ccccc1N=[N+]=[N-]"
reportedvalue = 0.0646


====

target: Torsin-1A (Homo sapiens) (UniProt O14656)
Sequence (O14656 whole entry, looked up): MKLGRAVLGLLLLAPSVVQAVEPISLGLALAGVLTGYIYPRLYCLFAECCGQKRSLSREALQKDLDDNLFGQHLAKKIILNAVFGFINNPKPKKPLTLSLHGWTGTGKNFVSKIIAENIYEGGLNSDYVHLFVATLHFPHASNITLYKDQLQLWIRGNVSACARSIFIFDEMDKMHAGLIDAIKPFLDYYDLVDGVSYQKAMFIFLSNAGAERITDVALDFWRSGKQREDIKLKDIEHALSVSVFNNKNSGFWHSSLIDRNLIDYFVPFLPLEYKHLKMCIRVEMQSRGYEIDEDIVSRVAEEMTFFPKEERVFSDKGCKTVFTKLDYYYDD
testDetails: torsin A binders from cell lysate, primary screen, small-molecule microarray, wild-type, 635/667 nm (AID 1149)
recordedConditions: COS7 hTOR1A-WT lysate, 635 nm fluorescence, higher = more signal
measuredProperty: composite z-score

[[record]]
molecule = "C[N+](C)(C)CCCCCCNC(=O)[C@@H]1C[C@@H]2C(=O)N3CCC[C@H]3C(=O)N2[C@@H]1c1cccc(OCCO)c1"
measuredproperty = "composite z-score"
reportedvalue = -0.383

[[record]]
molecule = "COCCCNC(=O)[C@@]1(C)c2ccccc2C(=O)N(Cc2ccc(OC(F)(F)F)cc2)[C@H]1c1ccc(CO)cc1"
measuredproperty = "composite z-score"
reportedvalue = 0.13

[[record]]
molecule = "O=C1O[C@@H](c2ccccc2)[C@@H](c2ccccc2)N2[C@@H](c3ccc(OCCO)cc3)[C@]3(C(=O)Nc4ccc(C#CCCO)cc43)[C@@H](C(=O)N3CCCCCCC3)[C@H]12"
measuredproperty = "composite z-score"
reportedvalue = 0.782

[[record]]
molecule = "COC(=O)[C@H]1COC(c2ccc(OCCCO)cc2)=N1"
measuredproperty = "composite z-score"
reportedvalue = 0.337

[[record]]
molecule = "C=CCC(OC(C)=O)[C@@H]1[C@@H](N(Cc2cc3ccccc3o2)C(=O)Cc2ccc(F)cc2)c2cc(OCCCO)ccc2N1C(=O)Cc1ccc(OC)cc1 (some centres undefined)"
measuredproperty = "composite z-score"
reportedvalue = -0.499

[[record]]
molecule = "CN1C(=O)C2C=CC(C(O)C(c3ccccc3)c3ccccc3)N(NC(=O)OC(C)(C)C)C2C1=O (centres undefined)"
measuredproperty = "composite z-score"
reportedvalue = -0.05

[[record]]
molecule = "CC(C)[C@@H](OCc1ccccc1)[C@H](C)C=NOC[C@@H](C)[C@H](OCc1ccccc1)C(C)C"
measuredproperty = "composite z-score"
reportedvalue = 0.256

[[record]]
molecule = "O[C@@H](Cc1ccccc1)[C@H]1C2C=CCCC(c3ccccc3)=C2CN1Cc1cccc(Cl)c1 (some centres undefined)"
measuredproperty = "composite z-score"
reportedvalue = 0.762

[[record]]
molecule = "COCCOC(=O)N1C(=O)[C@@]2(c3cc(C#Cc4ccc(OC)cc4)ccc31)[C@H](C(=O)N1CCN(c3ncccn3)CC1)[C@H]1C(=O)O[C@H](c3ccccc3)[C@H](c3ccccc3)N1[C@@H]2c1ccc(OCCO)cc1"
measuredproperty = "composite z-score"
reportedvalue = -0.0983

[[record]]
molecule = "C[C@@H](c1ccccc1)N1C(=O)[C@H]2[C@H]3[C@H](O)C=CC(=O)[C@@H]3CC[C@H]2C1=O"
measuredproperty = "composite z-score"
reportedvalue = 0.445

[[record]]
molecule = "Cc1cc2c(c(=O)o1)[C@H](O)[C@H]1O[C@H]1C2=O"
measuredproperty = "composite z-score"
reportedvalue = 0.284

[[record]]
molecule = "CC(C)(C)N1C(=O)[C@H]2[C@H]3[C@H](O)[C@H](O)CC(=NOCc4ccccc4)[C@@H]3CC[C@H]2C1=O"
measuredproperty = "composite z-score"
reportedvalue = 0.678

[[record]]
molecule = "C=C(/C(=C/C[C@@H](OC(=O)c1ccncc1)c1ccc(OCCO)cc1)c1cnc2ccccc2c1)C(C)C"
measuredproperty = "composite z-score"
reportedvalue = 1.55

[[record]]
molecule = "COc1ccc([Si](C)(C)[C@@H]2[C@@H](CCO)O[C@]3(C(=O)N(Cc4ccc(NC(C)=O)cc4)c4ccccc43)[C@H]2C)cc1"
measuredproperty = "composite z-score"
reportedvalue = 0.412

[[record]]
molecule = "C[C@@H]1CCC2C(=O)N(Cc3ccccc3)C[C@@H](O)CN2[C@H]1c1ccc(Br)cc1 (some centres undefined)"
measuredproperty = "composite z-score"
reportedvalue = 0.866

[[record]]
molecule = "O=C(NN=C1C[C@@H](O)[C@@H](O)[C@@H]2[C@@H]3C(=O)N(c4cccc(Oc5ccccc5)c4)C(=O)[C@@H]3CC[C@@H]12)OCc1ccccc1"
measuredproperty = "composite z-score"
reportedvalue = 0.212

[[record]]
molecule = "COC(=O)[C@H](C)NC(=O)[C@@H](C)CO"
measuredproperty = "composite z-score"
reportedvalue = 0.927

[[record]]
molecule = "COC(=O)CC=C[C@@H](C)[C@@H](C=NO[C@H](C)c1cn([C@@H]2COC[C@H]2O)nn1)OC"
measuredproperty = "composite z-score"
reportedvalue = 0.73

[[record]]
molecule = "CO[C@@H]1COC(=O)CC=C[C@@H](C)[C@@H]2C=C[C@@H](O)[C@@H](COC(=O)CC=C[C@H]1C)O2"
measuredproperty = "composite z-score"
reportedvalue = 0.666

[[record]]
molecule = "CC(C)(C)N1CC=CC23O[C@@H]4C=CCCOC(=O)C4[C@H]2C(=O)N(CCCCCO)[C@@H]3C1=O (some centres undefined)"
measuredproperty = "composite z-score"
reportedvalue = 1.11

[[record]]
molecule = "C=CCNC(=O)[C@H]1[C@@H]2C(=O)O[C@@H](c3ccccc3)[C@@H](c3ccccc3)N2[C@@H](c2ccc(O)cc2)[C@]12C(=O)N(C(=O)OCCOC)c1ccc(C#CC3=CCCCC3)cc12"
measuredproperty = "composite z-score"
reportedvalue = 0.757

[[record]]
molecule = "[N-]=[N+]=NCc1ccccc1C[C@]1(C(=O)NCc2ccccc2)N=C(c2ccc(OCCCO)cc2)O[C@H]1c1ccccc1N=[N+]=[N-]"
measuredproperty = "composite z-score"
reportedvalue = -0.0818

[[record]]
molecule = "COCCOC(=O)N1C(=O)[C@@]2(c3cc(C#CCNC(N)=O)ccc31)[C@H](c1ccccc1OCCO)N1[C@H](c3ccccc3)[C@H](c3ccccc3)OC(=O)[C@H]1[C@@H]2C(=O)N1CCN(c2ncccn2)CC1"
measuredproperty = "composite z-score"
reportedvalue = 0.303

[[record]]
molecule = "Cc1cc(C)c(-c2cc([C@H](C)ON=C3[C@H]4CCn5c(=O)n(-c6ccccc6)c(=O)n5[C@H]4[C@H](O)[C@@H]4O[C@H]34)on2)c(C)c1"
measuredproperty = "composite z-score"
reportedvalue = 0.595

[[record]]
molecule = "CCN1C(=O)[C@H]2[C@H]3[C@H](O)[C@H](O)CC(=NOCc4ccccc4)[C@@H]3CC[C@H]2C1=O"
measuredproperty = "composite z-score"
reportedvalue = 0.962

[[record]]
molecule = "CC(C)NC(=O)[C@@]1(C)c2ccccc2C(=O)N(Cc2cc(F)cc(C(F)(F)F)c2)[C@H]1c1ccc(CO)cc1"
measuredproperty = "composite z-score"
reportedvalue = 0.411

[[record]]
molecule = "C=C(/C(=C/C[C@H](OC(=O)c1ccncc1)c1ccc(OCCO)cc1)c1cnc2ccccc2c1)C(C)C"
measuredproperty = "composite z-score"
reportedvalue = 1.12

[[record]]
molecule = "CCOC(=O)NN=C1C[C@@H](O)[C@@H](O)[C@@H]2[C@@H]3C(=O)N(C[C@@H]4CCCO4)C(=O)[C@@H]3CC[C@@H]12"
measuredproperty = "composite z-score"
reportedvalue = 0.298

[[record]]
molecule = "O=C1NC(=O)C2C1C=CC(C(O)Cc1ccccc1)N2Nc1ccccn1 (centres undefined)"
measuredproperty = "composite z-score"
reportedvalue = 0.638


Where do these numbers come from? They come from PubChem BioAssay.
